B1: Transcriptional repressor p66-beta, residues 415 to 455; numbered along this chain, Q8WXI9 (parent)
chain: VEPFVCAQCRTDFTPHWKQEKNGKILCEQCMTSNQKKALKA

Variants of: B1
ASSAY_NOTES: abundance fitness (aPCA) (normalised: wild type 0, dead -1); higher = more abundant; growth selection in yeast, the domain comes from the species named
PARTICULARS: Homo sapiens
# cutoff -0.1 applies to abundance fitness; >= gives True, < gives False

Ask | Decide: is the reported value of abundance fitness for E28T equal to or greater than -0.1?
Reply | True

Ask | Does G23N have a reported abundance fitness of at least -0.1?
Reply | True

Ask | Given K36E , state whether its abundance fitness is at least -0.1.
Reply | True

Ask | Given the entry L39I , answer whether its abundance fitness meets or surpasses -0.1.
Reply | True

Ask | hey, is abundance fitness for this one >= -0.1? N34L
Reply | False

Ask | Entry T32P : is its abundance fitness no less than -0.1?
Reply | True

Ask | hey, is abundance fitness for this one >= -0.1? V5S
Reply | True

Ask | Does N34E have a reported abundance fitness of at least -0.1?
Reply | True

Ask | Determine whether measured abundance fitness meets or exceeds -0.1 for A7F
Reply | True

Ask | Check this variant for abundance fitness at or above -0.1: D12A
Reply | True

Ask | Identify whether the reported abundance fitness of the following variant is -0.1 or greater: T32E
Reply | False

Ask | Reported abundance fitness reaches at least -0.1 for Q35T ?
Reply | True

Ask | Is abundance fitness at least -0.1? Consider K24D
Reply | False

Ask | Please tell me: is the variant A38Q at or over -0.1 in terms of abundance fitness?
Reply | False

Ask | Is abundance fitness at least -0.1? Consider T11S
Reply | True

Ask | hey, is abundance fitness for this one >= -0.1? N34M
Reply | False

Ask | Check the entry P15I : does abundance fitness equal or exceed -0.1?
Reply | False

Ask | Is abundance fitness at least -0.1? Consider Q8C
Reply | True

Ask | Is reported abundance fitness greater than or equal to -0.1 here: E2R
Reply | False

Ask | Tell me whether abundance fitness is at least -0.1 here: V1M
Reply | True

Ask | # check: abundance fitness of K36Q is greater than or equal to -0.1
Reply | True

Ask | State whether the measured abundance fitness reaches -0.1, counting equality as reaching it, for K40S
Reply | True

Ask | Is reported abundance fitness greater than or equal to -0.1 here: C30Q
Reply | False

Ask | Please check the record M31T and state if its abundance fitness is at or above -0.1.
Reply | True

Ask | I'd appreciate it if you could say whether W17A has abundance fitness at least equal to -0.1.
Reply | True

Ask | Is it the case that I25T has abundance fitness reaching or exceeding -0.1?
Reply | True

Ask | Is reported abundance fitness greater than or equal to -0.1 here: V5F
Reply | False

Ask | Is reported abundance fitness greater than or equal to -0.1 here: N22V
Reply | True

Ask | Dear colleague, could you confirm whether E20K has abundance fitness at or above -0.1?
Reply | False

Ask | Quick check, abundance fitness >= -0.1? E20A
Reply | False

Ask | Is the recorded value of abundance fitness equal to or greater than -0.1 for this variant? T32C
Reply | False

Ask | Say whether K18P shows abundance fitness of -0.1 or more.
Reply | False

Ask | Has K40Q a recorded abundance fitness greater than or equal to -0.1?
Reply | False

Ask | Decide: abundance fitness of A38V >= -0.1?
Reply | True

Ask | Please indicate if the recorded abundance fitness for S33Y meets or exceeds -0.1.
Reply | True

Ask | Kindly determine if abundance fitness recorded for V5M is above or exactly -0.1.
Reply | True

Ask | Decide: abundance fitness of R10H >= -0.1?
Reply | True

Ask | Would you say C27T shows abundance fitness at minimum -0.1?
Reply | False

Ask | Textbook exercise: given the entry I25K , state whether its abundance fitness is greater than or equal to -0.1.
Reply | True

Ask | Test whether the variant E28P records abundance fitness of -0.1 or higher.
Reply | False

Ask | Reported abundance fitness at or above -0.1? L26W
Reply | False

Ask | Hello, I need to know if K18C has measured abundance fitness not below -0.1. Thanks!
Reply | True

Ask | State whether the measured abundance fitness reaches -0.1, counting equality as reaching it, for Q29V
Reply | False

Ask | Form field: abundance fitness at least -0.1? Entry: K40T
Reply | True

Ask | Kindly determine if abundance fitness recorded for R10D is above or exactly -0.1.
Reply | True

Ask | Reported abundance fitness reaches at least -0.1 for A38D ?
Reply | True

Ask | Reported abundance fitness reaches at least -0.1 for P3I ?
Reply | True

Ask | Identify whether the reported abundance fitness of the following variant is -0.1 or greater: L26T
Reply | False

Ask | Does the variant L39G have recorded abundance fitness that is -0.1 or more?
Reply | True

Ask | Could you verify whether the entry F13E shows abundance fitness of no less than -0.1?
Reply | True

Ask | Is abundance fitness for L39R at or above -0.1?
Reply | True

Ask | Evaluate L39T : abundance fitness at minimum -0.1?
Reply | False

Ask | Reported abundance fitness at or above -0.1? E2H
Reply | True

Ask | Has Q19M a recorded abundance fitness greater than or equal to -0.1?
Reply | True

Ask | Given the entry K18L , answer whether its abundance fitness meets or surpasses -0.1.
Reply | False

Ask | In plain terms: is recorded abundance fitness at least -0.1 for W17Q ?
Reply | True

Ask | Reported abundance fitness at or above -0.1? M31R
Reply | False

Ask | Is reported abundance fitness greater than or equal to -0.1 here: F13R
Reply | False

Ask | Confirm if abundance fitness reported for the variant E2V is -0.1 or above.
Reply | False

Ask | // inclusive: abundance fitness at least -0.1? input: T11W
Reply | False

Ask | Quick check: does K40C have abundance fitness greater than or equal to -0.1?
Reply | False

Ask | Confirm if abundance fitness reported for the variant S33P is -0.1 or above.
Reply | True

Ask | In plain terms: is recorded abundance fitness at least -0.1 for Q29E ?
Reply | True

Ask | # check: abundance fitness of Q29W is greater than or equal to -0.1
Reply | False

Ask | # check: abundance fitness of P3T is greater than or equal to -0.1
Reply | True

Ask | Entry E20D : is its abundance fitness no less than -0.1?
Reply | False

Ask | Determine whether measured abundance fitness meets or exceeds -0.1 for C30R
Reply | False

Ask | Tell me whether abundance fitness is at least -0.1 here: E28H
Reply | True

Ask | Does abundance fitness meet or surpass -0.1 for K40L ?
Reply | False

Ask | Exam item: decide whether the reported abundance fitness for T32G is at least -0.1.
Reply | False

Ask | // inclusive: abundance fitness at least -0.1? input: T11K
Reply | True

Ask | Reported abundance fitness at or above -0.1? F13T
Reply | True

Ask | Kindly determine if abundance fitness recorded for A7D is above or exactly -0.1.
Reply | True

Ask | Check the entry C27A : does abundance fitness equal or exceed -0.1?
Reply | False

Ask | Given N22D , state whether its abundance fitness is at least -0.1.
Reply | True

Ask | Record Q29P ; criterion: abundance fitness no lower than -0.1. Met?
Reply | False

Ask | Is abundance fitness for S33K at or above -0.1?
Reply | False

Ask | Is the recorded value of abundance fitness equal to or greater than -0.1 for this variant? E28K
Reply | True

Ask | Item A7N with abundance fitness of -0.1 or above?
Reply | True

Ask | State whether the measured abundance fitness reaches -0.1, counting equality as reaching it, for Q19N
Reply | True

Ask | Reported abundance fitness reaches at least -0.1 for K36A ?
Reply | True

Ask | Answer whether abundance fitness of R10A is greater than or equal to -0.1.
Reply | True

Ask | Decide: is the reported value of abundance fitness for A7Y equal to or greater than -0.1?
Reply | False

Ask | Given the entry A7G , answer whether its abundance fitness meets or surpasses -0.1.
Reply | True

Ask | Entry F13K : is its abundance fitness no less than -0.1?
Reply | False

Ask | Does the reported abundance fitness for T32I fall at or above the -0.1 mark?
Reply | True

Ask | Reported abundance fitness at or above -0.1? W17R
Reply | True

Ask | Check the entry R10W : does abundance fitness equal or exceed -0.1?
Reply | True

Ask | Is abundance fitness at least -0.1? Consider Q19T
Reply | False

Ask | Does abundance fitness meet or surpass -0.1 for Q8L ?
Reply | True
